FYI, the data here is from PubChem BioAssay (NCI).

system: HCC-2998 colon; assay: NCI tumour cell line growth inhibition, 48 h
Rule: TGI of 20 µM or more gives Condition met; anything lower gives Condition not met.

{"COMPOUND": "C/C(=N\\Nc1nc2ccccc2s1)c1cccnn1", "ANSWER LABEL": "Condition met"}
{"COMPOUND": "CCOC(=O)c1[nH]c2nc(SC)nc(NC)c2c1N", "ANSWER LABEL": "Condition met"}
{"COMPOUND": "Clc1cc(Cl)c2c(Cl)cc(Cl)c3c2c1N=S=N3", "ANSWER LABEL": "Condition met"}
{"COMPOUND": "COc1cc2c(cc1OCCCOc1cc3c(cc1OC)C(=O)N1CCC[C@H]1CN3)N=C[C@@H]1CCCN1C2=O", "ANSWER LABEL": "Condition not met"}
{"COMPOUND": "CN1c2ccccc2C(=O)NC12CCN(CC1COc3ccccc3O1)CC2 (stereo unspecified)", "ANSWER LABEL": "Condition met"}
{"COMPOUND": "CCN(CC(=O)O)CC(=O)O", "ANSWER LABEL": "Condition met"}
{"COMPOUND": "Cc1cccc(NC(Nc2cccc(C)c2)=C(C(Cl)=C(Cl)Cl)[N+](=O)[O-])c1", "ANSWER LABEL": "Condition met"}
{"COMPOUND": "O=C(N/N=C/c1ccc(Cl)cc1Cl)c1ccccc1Nc1cccc(C(F)(F)F)c1", "ANSWER LABEL": "Condition met"}
{"COMPOUND": "CCCCCCNc1nc(NCCCCCC)c2[nH]c(NCCCCCC)nc2n1", "ANSWER LABEL": "Condition met"}
{"COMPOUND": "CC(C)(C)OC(=O)c1ccc(NCc2cc(O)ccc2O)cc1", "ANSWER LABEL": "Condition met"}
{"COMPOUND": "CC[P+](C#Cc1ccccc1)(c1ccccc1)c1ccccc1", "ANSWER LABEL": "Condition not met"}

====

system: CAKI-1 renal; assay: NCI tumour cell line growth inhibition, 48 h; in the data active = GI50 below about 0.43 µM; inactive = the rest
Possible outcomes: active, inactive

{"MOLECULE": "CC(=O)[CH-]C(C)=O.CC(=O)[CH-]C(C)=O.N=CC=N.[Sn+2]", "ANSWER LABEL": "inactive"}
{"MOLECULE": "CC1=C(C)C(=O)O[C@@H]([C@](C)(O)[C@]2(O)CC[C@@]3(O)[C@@H]4C[C@H]5O[C@]56CC=CC(=O)[C@]6(C)[C@H]4CC[C@]23C)C1", "ANSWER LABEL": "active"}
{"MOLECULE": "O=C(Nc1cc(-c2ccccc2)[nH]n1)c1ccc(Cl)cc1", "ANSWER LABEL": "inactive"}
{"MOLECULE": "N#Cc1c(-c2ccccc2)nc2c(c(-c3ccccc3)nn2-c2ccccc2)c1-c1ccc(O)cc1", "ANSWER LABEL": "inactive"}
{"MOLECULE": "COc1cc2c3c(n(CCCN4CCC(N)CC4)c(=O)c2cc1OC)-c1cc2c(cc1C3=O)OCO2", "ANSWER LABEL": "active"}
{"MOLECULE": "C=CC(=O)Nc1cccc(Nc2nc(Nc3ccc(OCCOC)cc3)ncc2F)c1", "ANSWER LABEL": "inactive"}
{"MOLECULE": "COc1cc(-c2cn(C)c(=O)c(C)c2C)cc(OC)c1CN1CC[C@H](N2CCN(c3ccc(N[C@H]4CCC(=O)NC4=O)cc3F)CC2)C(F)(F)C1", "ANSWER LABEL": "inactive"}
{"MOLECULE": "NCCN1CCN(c2nccc(-c3ccc4ccccc4c3)n2)CC1", "ANSWER LABEL": "inactive"}
{"MOLECULE": "CC1=Nc2c(ccc3c2C(=O)c2ccccc2C3=O)NC(c2ccncc2)C1 (configuration not stated)", "ANSWER LABEL": "inactive"}
{"MOLECULE": "O=P(O)(O)C(O)(Cn1ccnc1)P(=O)(O)O", "ANSWER LABEL": "inactive"}
{"MOLECULE": "CCN(CCO)CCNc1ccc(C)c2sc3cc(Cl)ccc3c(=O)c12", "ANSWER LABEL": "inactive"}
{"MOLECULE": "C=CCOc1c(Br)cc(Br)cc1Br", "ANSWER LABEL": "inactive"}

====

tested on: HOP-62 NSCLC; assay: NCI tumour cell line growth inhibition, 48 h
# reported TGI; entries follow

{"COMPOUND": "C=C(C)[C@@H]1CC[C@@]2(C(=O)O)CC[C@]3(C)C(CCC4[C@@]5(C)CCC(OS(=O)(=O)c6ccccc6)C(C)(C)C5CC[C@]43C)C12 (stereo not given in full)", "QUALIFYING SIGN": "=", "TGI / µM": 18.5}
{"COMPOUND": "CCCCCC(C(O)C#N)C(O)(C(F)(F)F)C(F)(F)F (stereo not given)", "QUALIFYING SIGN": ">", "TGI / µM": 10}
{"COMPOUND": "CC(O)(C(=O)N(O)c1ccc(Cl)cc1)c1ccc(Cl)cc1 (stereo not given)", "QUALIFYING SIGN": "=", "TGI / µM": 93}
{"COMPOUND": "CCn1c(-c2nonc2N)nc2ccc(F)cc21", "QUALIFYING SIGN": ">", "TGI / µM": 25}
{"COMPOUND": "CC1(C)CCc2cc3c(cc2O1)OCCC3=O", "QUALIFYING SIGN": ">", "TGI / µM": 100}

====

Reported TGI values follow for various compounds
system: EKVX NSCLC; assay: NCI tumour cell line growth inhibition, 48 h
READOUT: TGI

{"COMPOUND": "CC1(C)CCc2cc3c(cc2O1)OCCC3=O", "TARGET": "EKVX NSCLC", "MEASURED": "> 100 µM"}
{"COMPOUND": "Clc1ccc(CNc2nc3ccccc3nc2-c2cccs2)c(Cl)c1", "TARGET": "EKVX NSCLC", "MEASURED": "> 100 µM"}
{"COMPOUND": "COc1ccc(C(=O)C(C(=O)CCC(=O)Nc2cccc(C(F)(F)F)c2)c2ccccc2)cc1 (centres undefined)", "TARGET": "EKVX NSCLC", "MEASURED": "> 100 µM"}
{"COMPOUND": "O=c1c2ccccc2c2c3c1cccc3c1cccc3c(=O)c4ccccc4c2c31", "TARGET": "EKVX NSCLC", "MEASURED": "> 100 µM"}
{"COMPOUND": "CCCSc1cc(Cl)nc(N)n1", "TARGET": "EKVX NSCLC", "MEASURED": "> 100 µM"}
{"COMPOUND": "Clc1ccc(OCc2nnc3n2N=C(c2ccc(Cl)cc2Cl)CS3)c(Cl)c1", "TARGET": "EKVX NSCLC", "MEASURED": "74.1 µM"}
{"COMPOUND": "Cc1ccc2/c(=C/c3ccc(N(C)C)cc3)c3cc(-c4ccccc4)[n+](C)n3c2c1", "TARGET": "EKVX NSCLC", "MEASURED": "7.95 µM"}
{"COMPOUND": "CCOC(=O)[C@@H](C)C[C@H](Cc1ccccc1)NC(=O)c1csc([C@@H](C[C@H](C(C)C)N(C)C(=O)[C@@H](NC(=O)[C@H]2CCCCN2C)C(C)(C)C)OC(C)=O)n1", "TARGET": "EKVX NSCLC", "MEASURED": "> 16.7 µM"}
{"COMPOUND": "COc1cc2nc(-c3c(F)cccc3F)n(Cc3c(F)cccc3F)c2cc1Cc1c(F)cccc1F", "TARGET": "EKVX NSCLC", "MEASURED": "> 100 µM"}

====

system: SNB-78 CNS; test: NCI tumour cell line growth inhibition, 48 h
READOUT: TGI

{"COMPOUND": "CC(C)(C)c1nc2c(o1)C(=Nc1ccc(F)cc1)c1ccccc1C2=O", "MEASURED": "> 100 µM"}
{"COMPOUND": "Clc1cc(Cl)c2c(Cl)cc(Cl)c3c2c1N=S=N3", "MEASURED": "> 100 µM"}
{"COMPOUND": "O=C1c2ccccc2-c2cccc3ccc(Cc4ccccc4)c1c23", "MEASURED": "> 100 µM"}
{"COMPOUND": "CC1CCCC(C(=O)/C(=C/c2cccc(Cl)c2)C(=O)C(=O)O)C1 (configuration not stated)", "MEASURED": "> 100 µM"}
{"COMPOUND": "CN1CCN(C)C1c1cccc(C2N(C)CCN2C)c1", "MEASURED": "> 100 µM"}
{"COMPOUND": "NC1=NC(=O)C(CC(=O)Nc2ccc([N+](=O)[O-])cc2[N+](=O)[O-])S1 (configuration not stated)", "MEASURED": "> 100 µM"}
{"COMPOUND": "c1ccc2c(c1)N=C(c1cccc3ccccc13)CC(c1cccc3ccccc13)S2 (configuration not stated)", "MEASURED": "33.4 µM"}
{"COMPOUND": "N#Cc1c(N)c(C(=O)O)nn(-c2cccc(C(F)(F)F)c2)c1=O", "MEASURED": "> 100 µM"}
{"COMPOUND": "COc1cc(/C=C\\c2ccc(O)cc2)cc(OC)c1OC", "MEASURED": "8.3 µM"}
{"COMPOUND": "O=c1c2ccccc2c2c3c1cccc3c1cccc3c(=O)c4ccccc4c2c31", "MEASURED": "> 100 µM"}
{"COMPOUND": "Oc1c2c(c(O)c3ccccc13)=N[C@@H](c1ccccc1)[C@H](c1ccccc1)N=2", "MEASURED": "> 100 µM"}
{"COMPOUND": "Cc1ccc([N+](=O)[O-])c2c(NCCCN(C)C)ccnc12", "MEASURED": "> 100 µM"}
